- Measurement notes: recombinant barcode read abundance after kanamycin selection (control-corrected) (log10(CPM+1)); higher = more efficient recombination; sequences stand for … in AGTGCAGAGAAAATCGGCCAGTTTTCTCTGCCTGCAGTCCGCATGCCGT…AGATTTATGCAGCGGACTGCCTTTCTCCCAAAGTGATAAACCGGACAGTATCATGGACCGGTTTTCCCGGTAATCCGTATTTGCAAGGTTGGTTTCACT; site = the 11-nt target
Measure: recombinant barcode read abundance (log10)
Form: value (number only, do not type unit).

>  <Macromolecule sequence>
ACAATAGCTTGGGTTCTAACCTGTTGCTG (site ACAGTAGCTCA)

>  <Value reported>
0.0118

$$$$
>  <Macromolecule sequence>
CGTTCATCTTGGGTTCTAACCTGTTGCCT (site CGTTCATCTAG)

>  <Value reported>
0.0763

$$$$
>  <Macromolecule sequence>
CAGCAAGCTTGGGTTCTAACCTGTTGCCT (site CAGCAAGCTAG)

>  <Value reported>
1.17

$$$$
>  <Macromolecule sequence>
GGTCCGGCTTGGGTTCTAACCTGTTGCGG (site GATCCGTCTCC)

>  <Value reported>
0.0623

$$$$
>  <Macromolecule sequence>
ACCAATCCTTGGGTTCTAACCTGTTGCCT (site ACCAATACTAG)

>  <Value reported>
0.087

$$$$

Q: Please look up its recombinant barcode read abundance (log10): GGGCACTCTTGGGTTCTAACCTGTTGCCT (site GGGCACTCTAT)
Result: 0.585

Q: Please look up its recombinant barcode read abundance (log10): TCCCGACCTTGGGTTCTAACCTGTTGCCT (site TCCCGATCTAG)
Result: 0.0793

Q: Please look up its recombinant barcode read abundance (log10): CAACGGCCTTGGGTTCTAACCTGTTGCCT (site CAAGGGCCTAG)
Result: 0.55

Q: Please look up its recombinant barcode read abundance (log10): TCGGAGTCTTGGGTTCTAACCTGTTGCTT (site TCGGAGTCTAT)
Result: 1.39

Q: Please look up its recombinant barcode read abundance (log10): GAGGACTCTTGGGTTCTAACCTGTTGCCC (site GAGGACTCTGG)
Result: 2.39

Q: Please look up its recombinant barcode read abundance (log10): GCCCGAACTTGGGTTCTAACCTGTTGCCT (site GCTCGAACTAG)
Result: 0.101

Q: Please look up its recombinant barcode read abundance (log10): CACATACCTTGGGTTCTAACCTGTTGCAT (site CACCTTCCTAT)
Result: 0.0683

Q: Please look up its recombinant barcode read abundance (log10): AGGCTGCCTTGGGTTCTAACCTGTTGCCT (site AGGCTGTCTAG)
Result: 0.494

Q: Please look up its recombinant barcode read abundance (log10): TAGACTACTTGGGTTCTAACCTGTTGCTC (site TAGACTACTGA)
Result: 0.123

Q: Please look up its recombinant barcode read abundance (log10): GTGGGCCCTTGGGTTCTAACCTGTTGCCT (site GTATGCCCTAG)
Result: 0.02

Q: Please look up its recombinant barcode read abundance (log10): TCTATCCCTTGGGTTCTAACCTGTTGCCT (site TCCATCCCTAG)
Result: 0.105

Q: Please look up its recombinant barcode read abundance (log10): GCCGGGGCTTGGGTTCTAACCTGTTGCCG (site GCCTGGGCTCG)
Result: 0.258

Q: Please look up its recombinant barcode read abundance (log10): ACGCGAGCTTGGGTTCTAACCTGTTGCTG (site ACGCGAGCTCG)
Result: 0.14

Q: Please look up its recombinant barcode read abundance (log10): ACCAGGTCTTGGGTTCTAACCTGTTGCCT (site AGCAGGTCTAG)
Result: 0.208

Q: Please look up its recombinant barcode read abundance (log10): TCTAAGTCTTGGGTTCTAACCTGTTGCCC (site TCTAAGTCTTG)
Result: 0.00905

Q: Please look up its recombinant barcode read abundance (log10): TGAAAGTCTTGGGTTCTAACCTGTTGCCT (site TGAATGTCTAG)
Result: 0.0411

Q: Please look up its recombinant barcode read abundance (log10): ATGGATACTTGGGTTCTAACCTGTTGCGT (site AGGGATACTAC)
Result: 0.219

Q: Please look up its recombinant barcode read abundance (log10): GCGGCGACTTGGGTTCTAACCTGTTGCCT (site GCAGCGACTAG)
Result: 0.291

###

- Measurement notes: recombinant UMI read abundance after kanamycin selection (control-corrected) (log10(CPM+1)); higher = more efficient recombination; extreme values may be limits of the assay; sequences stand for … in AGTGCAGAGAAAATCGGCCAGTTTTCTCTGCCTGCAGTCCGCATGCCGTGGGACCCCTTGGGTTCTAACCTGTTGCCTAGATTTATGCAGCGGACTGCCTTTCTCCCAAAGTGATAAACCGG…AGGTTGGTTTCACT; site = the 11-nt donor
Kindly return true (1) if reported recombinant UMI read abundance (log10) is no lower than 0.2; return false (0) if it is lower.

>  <Macromolecule sequence>
CCCTAGCCATGGACCGGTTTTCCCGGTAATCCGTATTTGCA (site CCCTAGCCTTG)

>  <Group>
false (0)

$$$$

Q: For this sequence, is measured recombinant UMI read abundance (log10) 0.2 or higher? GAATGGCCATGGACCGGTTTTCCCGGTAATCCGTATTTGAA (site GAATGGCCTTC)
Result: false (0)

Q: For this sequence, is measured recombinant UMI read abundance (log10) 0.2 or higher? ACCTAGTCATGGACCGGTTTTCCCGGTAATCCGTATTTGGG (site ACCTAGGCTCC)
Result: false (0)

Q: For this sequence, is measured recombinant UMI read abundance (log10) 0.2 or higher? AGCTCTGCATGGACCGGTTTTCCCGGTAATCCGTATTTGGG (site AGCTCGGCTCC)
Result: false (0)

###

Recorded recombinant UMI read abundance (log10) for the following sequences
- Measurement notes: recombinant UMI read abundance after kanamycin selection (control-corrected) (log10(CPM+1)); higher = more efficient recombination; extreme values may be limits of the assay; sequences stand for … in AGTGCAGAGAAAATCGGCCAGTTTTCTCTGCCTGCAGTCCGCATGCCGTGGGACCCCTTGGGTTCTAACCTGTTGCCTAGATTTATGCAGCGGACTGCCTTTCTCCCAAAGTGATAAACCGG…AGGTTGGTTTCACT; site = the 11-nt donor
Form: value (number only, do not type unit).

Example cases with answers are listed next.
>  <Macromolecule sequence>
GAACGGCCATGGACCGGTTTTCCCGGTAATCCGTATTTGCA (site GAACGGCCTTG)

>  <Value reported>
0.812

$$$$
>  <Macromolecule sequence>
GATTCCCCATGGACCGGTTTTCCCGGTAATCCGTATTTGGG (site TTAGGTTCTGA)

>  <Value reported>
0

$$$$

Let us examine a further case.
Q: Please look up its recombinant UMI read abundance (log10): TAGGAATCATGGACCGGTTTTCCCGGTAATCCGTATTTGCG (site TAGGAGTCTCG)
Result: 1.94

###

- Measurement notes: recombinant barcode read abundance after kanamycin selection (control-corrected) (log10(CPM+1)); higher = more efficient recombination; sequences stand for … in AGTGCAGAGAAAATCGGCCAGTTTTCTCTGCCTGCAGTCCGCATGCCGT…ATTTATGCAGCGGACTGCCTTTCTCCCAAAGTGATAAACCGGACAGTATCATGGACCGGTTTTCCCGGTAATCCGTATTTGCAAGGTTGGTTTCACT; site = the 11-nt target
Kindly return Y if reported recombinant barcode read abundance (log10) is no lower than 0.2; return N if it is lower.

Worked cases, answers included:
>  <Macromolecule sequence>
GAGTCCAACTGGGTTCTAACCTGTTGCGTGT [GAGTCCACTAC_LTGcore_AC_RTGcore_AC] (site GAGTCCACTAC) (LTG core: AC, RTG core: AC)

>  <Group>
N

$$$$
>  <Macromolecule sequence>
AAACACAGATGGGTTCTAACCTGTTGCCTTC [AAACACACTAG_LTGcore_GA_RTGcore_GA] (site AAACACACTAG) (LTG core: GA, RTG core: GA)

>  <Group>
N

$$$$
>  <Macromolecule sequence>
CGAGCCCAGTGGGTTCTAACCTGTTGCTGCT [CGAGCCCCTCA_LTGcore_AG_RTGcore_AG] (site CGAGCCCCTCA) (LTG core: AG, RTG core: AG)

>  <Group>
N

$$$$
>  <Macromolecule sequence>
ATGCTTTTCTGGGTTCTAACCTGTTGCCTGA [ATGCTTTCTAG_LTGcore_TC_RTGcore_TC] (site ATGCTTTCTAG) (LTG core: TC, RTG core: TC)

>  <Group>
N

$$$$
>  <Macromolecule sequence>
TAAGAATAATGGGTTCTAACCTGTTGCCTAG [TAAGAATCTAG_LTGcore_AA_RTGcore_CT] (site TAAGAATCTAG) (LTG core: AA, RTG core: CT)

>  <Group>
Y

$$$$
>  <Macromolecule sequence>
AGGCCTCCATGGGTTCTAACCTGTTGCCTAG [AGGCCTCCTAG_LTGcore_CA_RTGcore_CT] (site AGGCCTCCTAG) (LTG core: CA, RTG core: CT)

>  <Group>
Y

$$$$
>  <Macromolecule sequence>
GGGCGGAGTTGGGTTCTAACCTGTTGCGGAG [GGGCGGACTCC_LTGcore_GT_RTGcore_CT] (site GGGCGGACTCC) (LTG core: GT, RTG core: CT)

>  <Group>
Y

$$$$
>  <Macromolecule sequence>
GTCGCCCTTTGGGTTCTAACCTGTTGCTAAA [GTCGCCCCTTA_LTGcore_TT_RTGcore_TT] (site GTCGCCCCTTA) (LTG core: TT, RTG core: TT)

>  <Group>
N

$$$$
>  <Macromolecule sequence>
CGGTCCCTATGGGTTCTAACCTGTTGCCAAG [CGGTCCCCTTG_LTGcore_TA_RTGcore_CT] (site CGGTCCCCTTG) (LTG core: TA, RTG core: CT)

>  <Group>
N

$$$$
>  <Macromolecule sequence>
ACGGGACGATGGGTTCTAACCTGTTGCAGAG [ACGGGACCTCT_LTGcore_GA_RTGcore_CT] (site ACGGGACCTCT) (LTG core: GA, RTG core: CT)

>  <Group>
Y

$$$$

Q: For this sequence, is measured recombinant barcode read abundance (log10) 0.2 or higher? GAGGCCTCTTGGGTTCTAACCTGTTGCCATG [GAGGCCTCTTG_LTGcore_CT_RTGcore_CA] (site GAGGCCTCTTG) (LTG core: CT, RTG core: CA)
Result: N

Q: For this sequence, is measured recombinant barcode read abundance (log10) 0.2 or higher? AGGAGGTTATGGGTTCTAACCTGTTGCCTAG [AGGAGGTCTAG_LTGcore_TA_RTGcore_CT] (site AGGAGGTCTAG) (LTG core: TA, RTG core: CT)
Result: N
